Biological target: T1, blood platelet receptor glycoprotein Ib-IX-V complex (GPIb) (human, UniProt P07359 17-652; P13224 26-206; P14770 17-177; P40197 17-560)
T1 construct: whole, on cells; also called GPIb complex; GPIb receptor
T1 sequence (P07359 17-652, chain 1 of 4): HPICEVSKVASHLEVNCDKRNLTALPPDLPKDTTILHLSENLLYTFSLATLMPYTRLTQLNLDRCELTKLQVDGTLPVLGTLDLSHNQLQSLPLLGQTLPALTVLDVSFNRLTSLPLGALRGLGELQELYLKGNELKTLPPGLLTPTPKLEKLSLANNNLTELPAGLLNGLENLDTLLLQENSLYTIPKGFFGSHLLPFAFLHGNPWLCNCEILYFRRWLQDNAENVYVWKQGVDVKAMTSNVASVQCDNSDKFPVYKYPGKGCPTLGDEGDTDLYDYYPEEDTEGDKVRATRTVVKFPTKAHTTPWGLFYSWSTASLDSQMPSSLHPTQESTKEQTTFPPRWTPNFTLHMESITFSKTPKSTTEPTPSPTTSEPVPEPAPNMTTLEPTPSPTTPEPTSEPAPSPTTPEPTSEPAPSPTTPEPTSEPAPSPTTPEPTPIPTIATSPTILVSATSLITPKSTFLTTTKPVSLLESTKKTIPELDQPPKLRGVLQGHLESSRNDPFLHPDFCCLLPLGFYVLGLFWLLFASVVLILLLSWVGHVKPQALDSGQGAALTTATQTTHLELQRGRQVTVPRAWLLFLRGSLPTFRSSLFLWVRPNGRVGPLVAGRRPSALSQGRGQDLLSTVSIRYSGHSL
T1 sequence (P13224 26-206, chain 2 of 4): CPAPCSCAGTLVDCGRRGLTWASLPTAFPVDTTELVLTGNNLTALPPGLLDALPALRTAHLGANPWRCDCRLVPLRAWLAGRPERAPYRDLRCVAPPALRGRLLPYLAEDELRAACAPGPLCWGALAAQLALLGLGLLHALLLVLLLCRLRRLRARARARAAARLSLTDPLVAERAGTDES
T1 sequence (P14770 17-177, chain 3 of 4): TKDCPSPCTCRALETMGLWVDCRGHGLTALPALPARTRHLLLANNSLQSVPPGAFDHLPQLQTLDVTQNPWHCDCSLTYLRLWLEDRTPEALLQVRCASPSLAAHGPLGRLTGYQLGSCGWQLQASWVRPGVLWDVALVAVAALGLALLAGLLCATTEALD
T1 sequence (P40197 17-560, chain 4 of 4): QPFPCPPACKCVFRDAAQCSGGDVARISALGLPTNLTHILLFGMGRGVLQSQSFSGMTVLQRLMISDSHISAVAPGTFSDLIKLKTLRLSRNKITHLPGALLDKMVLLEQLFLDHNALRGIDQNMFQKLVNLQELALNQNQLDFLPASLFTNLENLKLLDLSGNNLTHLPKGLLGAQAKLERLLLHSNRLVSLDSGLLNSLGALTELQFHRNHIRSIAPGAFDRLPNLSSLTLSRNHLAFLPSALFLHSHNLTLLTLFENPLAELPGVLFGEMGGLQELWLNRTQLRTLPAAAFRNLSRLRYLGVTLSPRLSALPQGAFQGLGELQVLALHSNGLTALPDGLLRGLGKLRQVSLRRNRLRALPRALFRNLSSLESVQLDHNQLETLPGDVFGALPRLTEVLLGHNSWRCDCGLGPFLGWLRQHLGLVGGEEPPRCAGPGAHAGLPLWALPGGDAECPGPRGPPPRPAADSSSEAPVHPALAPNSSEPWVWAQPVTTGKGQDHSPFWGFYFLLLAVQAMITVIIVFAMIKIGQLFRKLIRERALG
Test: inhibition of static adhesion of human platelets to coated vWF-A1; grade C = IC50 lower than 1 µM
pIC50: −log10 of the molar value. Starred links: 1 amine or outer side, 2 acyl side, 3 side chain; linkers in the order of their positions; H or OH if unused. Non-standard residues stand in square brackets, D forms with d. NHCH2(1,3-C6H4)CH2CO = O=C(Cc1cccc(CN[*:1])c1)[*:2]; Ahp = NCCCCCCC(=O)O
assay endpoint: pIC50

cyclo(LHNL[Ahp]TERLA) (SMILES CC(C)C[C@@H]1NC(=O)[C@H](C)NC(=O)[C@H](CC(C)C)NC(=O)[C@H](CCCNC(=N)N)NC(=O)[C@H](CCC(=O)O)NC(=O)[C@H]([C@@H](C)O)NC(=O)CCCCCCNC(=O)[C@H](CC(C)C)NC(=O)[C@H](CC(N)=O)NC(=O)[C@H](Cc2c[nH]cn2)NC1=O) [Cyclo[Leu-His-Asn-Leu-NH-(CH2)6-CO-Thr-Glu-Arg-Leu-Ala]] = > 6.00

Hello, please tell me recorded pIC50 for this one: cyclo(LHNL[NHCH2(1,3-C6H4)CH2CO]TERMA) (SMILES CSCC[C@@H]1NC(=O)[C@H](CCCNC(=N)N)NC(=O)[C@H](CCC(=O)O)NC(=O)[C@H]([C@@H](C)O)NC(=O)Cc2cccc(c2)CNC(=O)[C@H](CC(C)C)NC(=O)[C@H](CC(N)=O)NC(=O)[C@H](Cc2c[nH]cn2)NC(=O)[C@H](CC(C)C)NC(=O)[C@H](C)NC1=O) [Cyclo[Leu-His-Asn-Leu-NH-X4-X3-X2-X1-CO-Thr-Glu-Arg-Met-Ala] of example 2]
> 6.00

Hello, please tell me recorded pIC50 for this one: cyclo(LHNL[Ahp]QERMA) (SMILES CSCC[C@@H]1NC(=O)[C@H](CCCNC(=N)N)NC(=O)[C@H](CCC(=O)O)NC(=O)[C@H](CCC(N)=O)NC(=O)CCCCCCNC(=O)[C@H](CC(C)C)NC(=O)[C@H](CC(N)=O)NC(=O)[C@H](Cc2c[nH]cn2)NC(=O)[C@H](CC(C)C)NC(=O)[C@H](C)NC1=O) [Cyclo[Leu-His-Asn-Leu-NH-(CH2)6-CO-Gln-Glu-Arg-Met-Ala]]
> 6.00

Just for reference, patent US20140011734A1 is where these values come from.
